For each entry below, report its IC50 value.
The response must be a number in nM with no trailing unit.

Query: Lab request: please report IC50 under test system Vascular endothelial growth factor receptor 2 (Homo sapiens, UniProt P35968) for FC(F)(Cl)Oc1ccc(Nc2nnc(-c3cccnc3CCc3ccncc3)o2)cc1
Reply: 31

Query: Lab request: please report IC50 under test system Vascular endothelial growth factor receptor 2 (Homo sapiens, UniProt P35968) for FC(F)(F)Oc1cccc(Nc2nnc(-c3ccncc3CCc3ccncc3)o2)c1
Reply: 470

Query: Lab request: please report IC50 under test system Vascular endothelial growth factor receptor 2 (Homo sapiens, UniProt P35968) for Cc1cccc(Nc2nnc(-c3cccnc3CCc3ccncc3)o2)c1
Reply: 770

Query: Lab request: please report IC50 under test system Vascular endothelial growth factor receptor 2 (Homo sapiens, UniProt P35968) for CC(C)(C)c1ccc(Nc2nnc(-c3ccncc3CCc3ccncc3)o2)cc1
Reply: 190
